- assay system: anti-v-mos MAb
- assay method text: solution phase binding studies with [3H]Ac-v-mos radioligand
- Parameters: species or system mouse
- study conditions: competition with 20 nM [3H]Ac-v-mos for 10 μg/ml anti-v-mos MAb
Where no end group is shown, it is not given here. [ ]: non-standard residue; d: D form. βAla = NCCC(=O)O
Note to self: use Yes only for Ki readings below 20 µM; a reading exactly at 20 µM still gets No.

| substance | answer label |
| --- | --- |
| GRRAYE[βAla]-OH | Yes |
| LGSGGFGSVYKA [residues 100 to 111 of the v-mos oncogene product, reference compound] | Yes |
| GRREGP[βAla]-NH2 | No |
| GRRGME[βAla]-NH2 | No |
| GRRGME-OH | No |
| GRRAYE-OH | Yes |
| GRRAYE-NH2 | No |
| GFGSVY-OH | No |
| GRRPYG-OH | No |

###

- assay system: anti-v-mos MAb
- assay method text: solution phase binding studies with [3H]Ac-v-mos radioligand
- Set-up: species or system mouse
- study conditions: competition with 20 nM [3H]Ac-v-mos for 10 μg/ml anti-v-mos MAb
Where no end group is shown, it is not given here. [ ]: non-standard residue; d: D form. βAla = NCCC(=O)O

| substance | Ki |
| --- | --- |
| GRRAYE[βAla]-NH2 | 9.02 to 20.4 µM |
| GFGSVY[βAla]-NH2 | 409 to 442 µM |
| GRRPYG[βAla]-NH2 | 20.5 µM |
| GFGSVY[βAla]-OH | 529 to 770 µM |
| GFGSVY-NH2 | 246 to 337 µM |
